# Measured On: T1, Recombinant human IL-1beta (rhIL-1b) (human, UniProt P01584 117-269)
# T1 construct: R&D Systems Cat. No. 201-LB/CF; also called IL-1β; human IL-1β
# Assay Protocol: Biacore, Medium Resolution; IL-1β in solution; medium-resolution Biacore

Binder	Kd (nM)
9.19.1 (antibody, human IgG4, V domains shown, lambda; also called mAb 9.19.1) VH: QVQLVESGGGVVQPGRSLRLSCAASGFTFNNYGMHWVRQAPGKGLECVAVIWYDGGNKYYADSVKGRFAISRDNSKNTLYLQMNSLRAEDTAVYYCTAVTKLNYYYGMDVWGQRTTVTVS VL: QSALTQPASVSGSPGQSITISCTGTSSDVGGYNYVSWYQQHPGKAPKFMIYEVSNRPSGVSNRFSGSKSGNTASLTISGLQAEDEADYYCSSYTSSSILVFGGGTKLTVL	0.063
5.36.1 (antibody, human IgG4, V domains shown, kappa) VH: QVQLQQSGPGLVKPSQTLSLTCAISGDSVSSNSAAWNWIRQSPSRGLEWLGRTYYRSKWYNDYAVSVKSRITINPDTSKNQFSLQLNSVTPEDTAVYYCAREEQQLVRYYYYYGMDVWGQGTTVTVS VL: DIVMTQTPLSLSVTPGQPASISCKSSQSLLHSDGRTYLYWYLQRPGQPPQLLIYEASYRFSGVPDRFSGSGSGTDFTLKISRVEAEDVGIYYCMQSIQLPRTFGQGTRLEIK	0.58
9.11.1 (antibody, human IgG4, V domains shown, lambda; also called 9.11.3) VH: QVQLVESGGGVVQPGRSLRLSCAASGFTFSVYGMHWVRQAPGKGLEWVAVIWYDGNNKYYVDSVKGRFTISRDNSKNTLYLQLNSLRAEDTAVYYCARERSSSWYFDYWGQGTLVTVSS VL: QSALTQPASVSGSSGQSITISCTGTSSDVGSYNLVSWYQQHPGKAPKLMIYEVSKRPSGVSNRFSGSKSGNTASLTISGLQAEDEADYYCCSYAGNSNWVFGGGTKLTVL	0.14
9.54.1 (antibody, human IgG4, V domains shown, lambda; also called 9.54.2) VH: QVQLVESGGGVVQPGRSLRLSCAASGFTFSSFGMHWVRQAPGKGLEWVAVIWYDGSNKYYADSVKGRFTISRDNSKNTLYLQMNSLRAEDTAVYYCARDPNYDILTGYYYYGMDVWGQGTTVTVS VL: SSELTQDPAVSVALGQTVRITCQGDILRTYYASWYQQKPGQAPVLVIYGKNDRPSGIPDRFSGSSSGNTASLTITGAQAEDEADYYCDSRDNTVTHLVFGGGTKLTVL	0.14
6.26.1 (antibody, human IgG4, V domains shown, lambda; also called 6.26.4) VH: QLQLQESGPGLVKPSETLSLTCTVSGGSISRSSYYWGWIRQPPGKGLEWMGNIYYSGSTHYNPSLKSRVTISVDTSKNQFSLKLSSVTAADTAVFYCAKGREYISSSGYGMDVWGQGTTVTVS VL: SYELTQPPSVSVSPGQTASITCSGDKLGNKYVCWYQQKPGQSPVLVIFQDSRRPSGIPERFSGSNSGNTATLTISGTQAMDEADYYCQAWDTSTVIFGGGTKLTVL	0.2
8.6.1 (antibody, human IgG4, V domains shown, lambda; also called 8.6.3) VH: QVQLQESGPGLVKPSETLSLTCTVSGGSVSSGGYYWSWVRQPPGKGLEWIGCIYFSESTNYNPSLKSRVTISVDTSKNQFSLKLSSVTAADTAVYYCARDPMHYYGMDVWGQGTTVTVSS VL: SFELTQPPSVSVSPGQTASITCSGDKLGDKFACWYQQKPGQSPVLVIYQDTKRPSGIPERISGSNSGNTATLTISGTQAMDEADYYCQAWDSSTYVVFGGGTKLTVL	0.82
9.2.1 (antibody, human IgG4, V domains shown, lambda) VH: QVQLVESGGGVVQPGRSLRLSCAASGFTFNNYGMHWVRQAPGKGLECVAVIWYDGGNKYYADSVKGRFAISRDNSKNTLYLQMNSLRAEDTAVYYCTAVTTLYYYYGMDVWGQGTTVTVS VL: QSALTQPASVSGSPGQSITISCTGTSSDVGGYNYVSWYQQHPGKAPKLMIYEVSNRPSGVSNRFSGSKSGNTASLTISGLQAEDEADYYCSSYTSSSILVFGGGTKLTVL	0.29
5.5.1 (antibody, IgG4, V domains shown, lambda; also called mAb 5.5.1; Ab 5.5.1) VH: QVQLVESGGGVVQPGRSLRLSCAASGFTFSSYGMHWVRQAPGKGLEWVAVIWYDGDNKYYADSVQGRFTISRDNSKNTLYLQMNSLRPEDTAVYYCARERSSSWYFDYWGQGTLVTVSS VL: QSALTQPASVSGSPGQSITISCTGTSSDVGSYNLVSWYQQHPGKAPKLMIYEVSKRPSGISNRFSGSKSGNTASLTISGLQAEDEADYYCCSYAGSSTWVFGGGTKLTVL	0.18
8.18.1 (antibody, human IgG4, V domains shown, lambda; also called mAb 8.18.1) VH: QVQLQESGPGLVKPSETLSLTCTVSGGSVSSGGYYWSWIRQPPGKGLEWIGYFYYSGSPNYNPSLKRRIAISVDTSKNQFSLRLSSVTAADTAVYYCARDPMHYYGMDVWGQGTTVTVSS VL: SSELTQPPSVSVFPGQTANITCSGDKLGDKFACWYQQKPGQSPVLVIYRDNKRPSGIPERFSGSNSGNTATLTISGTQAMDEADYYCQAWDSSTYVVFGGGTKLTVL	0.45
6.33.1 (antibody, human IgG4, V domains shown, lambda; also called mAb 6.33.1) VH: QVQLVESGGGVVQPGRSLRLSCAASGFTFSVYGMHWVRQAPGKGLEWVAVIWYDGSNKYYADSVKGRFTISRDNSKNTLYLQMNSLRAEDTAVYYCAREKSSGWFFDYWGQGTLVTVSS VL: QSALTQPASVSGSPGQSITISCTGTSSDVGSYNLVSWYQQHPGKAPKLMIYEVSKRPSGISNRFSGSKSGNTASLTISGLQAEDEADYYCCSYAGNSIWVFGGGTKLTVL	0.14
